All values here come from PubChem BioAssay (NCI).

test system: LOX IMVI melanoma; experiment: NCI tumour cell line growth inhibition, 48 h

compound: Cc1cc2c(cc1C)[n+](=O)c(C(=O)N1CCN(c3ccc([N+](=O)[O-])cc3)CC1)c(C)n2[O-]
TGI: > 100 µM

compound: O=C1Nc2ccccc2Nc2nc3cccccc-3c21
TGI: > 100 µM

compound: CC(=O)NCCc1c[nH]c2ccc(Cl)cc12
TGI: > 100 µM

compound: CN(C)CCCNc1nnc(NCCCN(C)C)c2c(=O)c3sccc3[nH]c12
TGI: 54.4 µM

compound: O=[N+]([O-])c1cccc2nc3ccccc3c(NCCCN3CCOCC3)c12
TGI: 1.66 µM

compound: O=c1c2ccccc2nc(-c2ccccc2)n1NC(=S)Nc1ccc(Cl)cc1[N+](=O)[O-]
TGI: > 100 µM

compound: C#CCOC(=O)C(N)CSSCC(N)C(=O)O (stereo not given)
TGI: > 100 µM

compound: CCCC(=O)OC[n+]1cccc(-c2c(COC(=O)NC(C)C)c(COC(=O)NC(C)C)c3n2CCC3)c1
TGI: > 100 µM

compound: C#COc1cccc(Nc2ncnc3ncc(NC(=O)CCl)cc23)c1
TGI: > 28 µM

compound: COC(=O)N/N=C/c1oc(-c2ccccc2)c(-c2ccccc2)c1[N+](=O)[O-]
TGI: > 100 µM
